- Tested on: E. coli (ATCC 10798)
- run_description: Sensitization to erythromycin (concentration lowering the MIC of erythromycin), E. coli (ATCC 10798)
- Format: cell-based, Escherichia coli
- stated_conditions: Table 9; Escherichia coli (ATCC 10798)
Define the label as T when FIC values with erythromycin is strictly less than 0.2 and as F in all remaining cases.

Is 0.2 strictly greater than the compound's reported FIC values with erythromycin? compound: CCCOCCC[C@@H](C)[C@H]1CC[C@H]2[C@@H]3[C@H](OCCCN)C[C@@H]4C[C@H](OCCCN)CC[C@]4(C)[C@H]3C[C@H](OCCCN)[C@]12C
T

Try C[C@H](CCCO)[C@H]1CC[C@H]2[C@@H]3[C@H](OCCCN)C[C@@H]4C[C@H](OCCCN)CC[C@]4(C)[C@H]3C[C@H](OCCCN)[C@]12C next.
T

Try C[C@]12CC[C@@H](OCCCN)C[C@H]1C[C@@H](OCCCN)[C@@H]1[C@@H]2C[C@H](OCCCN)[C@]2(C)[C@@H](O)CC[C@@H]12 next.
F

Try COCCC[C@@H](C)[C@H]1CC[C@H]2[C@@H]3[C@H](OCCCN)C[C@@H]4C[C@H](OCCCN)CC[C@]4(C)[C@H]3C[C@H](OCCCN)[C@]12C next.
T

Try C[C@H](CCO)[C@H]1CC[C@H]2[C@@H]3[C@H](OCCCN)C[C@@H]4C[C@H](OCCCN)CC[C@]4(C)[C@H]3C[C@H](OCCCN)[C@]12C next.
T

Try CCCCCOCCC[C@@H](C)[C@H]1CC[C@H]2[C@@H]3[C@H](OCCCN)C[C@@H]4C[C@H](OCCCN)CC[C@]4(C)[C@H]3C[C@H](OCCCN)[C@]12C next.
F

Try CCCCCCCCOCCC[C@@H](C)[C@H]1CC[C@H]2[C@@H]3[C@H](OCCCN)C[C@@H]4C[C@H](OCCCN)CC[C@]4(C)[C@H]3C[C@H](OCCCN)[C@]12C next.
F

Try CC(O)[C@H]1CC[C@H]2[C@@H]3[C@H](OCCCN)C[C@@H]4C[C@H](OCCCN)CC[C@]4(C)[C@H]3C[C@H](OCCCN)[C@]12C (stereo partly drawn) next.
T

Try C[C@H](CO)[C@H]1CC[C@H]2[C@@H]3[C@H](OCCCN)C[C@@H]4C[C@H](OCCCN)CC[C@]4(C)[C@H]3C[C@H](OCCCN)[C@]12C next.
T

Provenance of the data: patent US7598234B2
